Target: Cruzipain (Trypanosoma cruzi)
Experiment: Inhibition of recombinant Trypanosoma cruzi cruzain at 5 uM using Z-FR-AMC as substrate preincubated for 10 mins followed by substrate addition and measured at 12 sec interval for 5 mins by fluorimetric analysis relative to control
Details: time 15.0 min
t means recorded inhibition is 60% or above; f means it is below 60%.

[[record]]
molecule = "COc1ccc(C(=O)NC(c2ccc(Cl)cc2Cl)c2cc(Cl)c3cccnc3c2O)cc1 (stereo not given)"
classassignment = "f"

[[record]]
molecule = "O=C(NC1CCN(Cc2ccccc2)CC1)c1cc(-c2ccncc2)nc2ccc(Cl)cc12"
classassignment = "f"

[[record]]
molecule = "CCOc1ccccc1CNC(=O)C1c2ccccc2C(=O)N(CC(C)C)C1c1cccs1 (stereo not given)"
classassignment = "f"

[[record]]
molecule = "CCOc1ccc(/C=C/c2nc(=O)c3ccccc3o2)cc1"
classassignment = "t"

[[record]]
molecule = "CCCCCC(=O)N1c2ccccc2N=C2CC(c3ccc(OC)c(OC)c3)CC(O)=C2C1c1ccc(C(F)(F)F)cc1 (stereo not given)"
classassignment = "f"

[[record]]
molecule = "c1ccc(-c2ccc(-c3nc4ccccc4[nH]3)cc2)cc1"
classassignment = "t"

[[record]]
molecule = "O=C(c1ccccc1F)N(Cc1ccc(Cl)cc1)c1ccccn1"
classassignment = "t"

[[record]]
molecule = "O=C(Nc1ccc(-c2nc3ccccc3[nH]2)cc1)c1ccc(Cl)c(Cl)c1"
classassignment = "t"

[[record]]
molecule = "Cl.Cl.Clc1cc(Br)ccc1-c1ccc(CNCC2CCNCC2)o1"
classassignment = "f"

[[record]]
molecule = "CCN(CC)CCNc1ncnc2c1[nH]c1ccc(Br)cc12"
classassignment = "f"

